Origin of values: patent US6685617B1

# Target system: α4β1 integrin (Jurkat cell adhesion to immobilized CS-1 derived peptide CLHPGEILDVPST) (Homo sapiens, UniProt P05556+P13612)
# Construct: 100 μl of Jurkat cells (2.5×10^6 cells/ml) in DMEM plus BSA
# Assay name: Jurkat-CS-1 assay
# Condition notes: Jurkat cells on CS-1 peptide coated plates; read-out: JK/CS-1 (Jurkat CS-1 Assay IC50 value range)
# From the text: The CS-1 derived peptide, CLHPGEILDVPST, and the scrambled control peptide, CLHGPIELVSDPT, were synthesized on a Beckman 990 synthesizer using t-Boc methodology. The peptides were immobilized onto microtiter plates using the heterobifunctional crosslinker 3-(2-pyridyldithio)propionic acid N-hydroxysuccinimide ester (SPDP) as reported by Pierschbacher et al., Proc. Natl. Acad. USA, 80:1224-1227 (1983). […]
pIC50: −log10 of the molar value.
Measure: pIC50

// recorded pIC50 for COc1ccc(C(=O)N2CCC[C@H]2C(=O)N[C@@H](Cc2ccc(NC(=O)c3c(Cl)cccc3Cl)cc2)C(=O)O)cc1OC : 6.12 to 7.30

// recorded pIC50 for O=C(NO)[C@H](Cc1ccc(OCc2c(Cl)cccc2Cl)cc1)NC(=O)[C@H]1CSCN1C(=O)OCCN1CCCCC1 : ≤ 6.12

###

# Target system: α4β1 integrin (Jurkat cell adhesion to immobilized CS-1 derived peptide CLHPGEILDVPST) (Homo sapiens, UniProt P05556+P13612)
# Construct: 100 μl of Jurkat cells (2.5×10^6 cells/ml) in DMEM plus BSA
# Assay name: Jurkat-CS-1 assay
# Condition notes: Jurkat cells on CS-1 peptide coated plates; read-out: JK/CS-1 (Jurkat CS-1 Assay IC50 value range)
# Excerpt: The CS-1 derived peptide, CLHPGEILDVPST, and the scrambled control peptide, CLHGPIELVSDPT, were synthesized on a Beckman 990 synthesizer using t-Boc methodology. The peptides were immobilized onto microtiter plates using the heterobifunctional crosslinker 3-(2-pyridyldithio)propionic acid N-hydroxysuccinimide ester (SPDP) as reported by Pierschbacher et al., Proc. Natl. Acad. USA, 80:1224-1227 (1983). […]
Measure: IC50

- O=C(O)CCC(=O)N1CCC[C@@H]1C(=O)N[C@@H](Cc1ccc(NC(=O)c2c(Cl)cccc2Cl)cc1)C(=O)O: 50 to 750 nM
- O=C(O)c1ccc2cc(C(=O)N3CCC[C@H]3C(=O)N[C@@H](Cc3ccc(NC(=O)c4c(Cl)cccc4Cl)cc3)C(=O)O)ccc2c1: ≥ 750 nM
- NC(=O)[C@H](Cc1ccc(OCc2c(Cl)cccc2Cl)cc1)NC(=O)[C@H]1CSCN1C(=O)OCCN1CCOCC1 (relative stereo): 50 to 750 nM
- COC(=O)[C@H](Cc1ccc(OCc2c(Cl)cccc2Cl)cc1)NC(=O)[C@H]1CSCN1C(=O)OCCN1CCCCC1 (relative stereo): 50 to 750 nM
- CC(c1ccccc1)N1C(C(=O)O)CC1C(=O)NC(Cc1ccc(NC(=O)c2c(Cl)cccc2Cl)cc1)C(=O)O (single isomer, unassigned) [Example 139]: 50 to 750 nM

// recorded IC50 for O=C(O)[C@H](Cc1ccc(OCc2c(Cl)cccc2Cl)cc1)NC(=O)[C@H]1CSCN1C(=O)OC1CCOC1 (stereo partly drawn) : 50 to 750 nM

###

# Target system: α4β1 integrin (Jurkat T-cell adhesion to IL-1 stimulated endothelial cell monolayers) (Homo sapiens, UniProt P05556+P13612)
# Construct: a T-cell line, Jurkat, known to express the α4β1 integrin
# Sequence (P13612 34-1032): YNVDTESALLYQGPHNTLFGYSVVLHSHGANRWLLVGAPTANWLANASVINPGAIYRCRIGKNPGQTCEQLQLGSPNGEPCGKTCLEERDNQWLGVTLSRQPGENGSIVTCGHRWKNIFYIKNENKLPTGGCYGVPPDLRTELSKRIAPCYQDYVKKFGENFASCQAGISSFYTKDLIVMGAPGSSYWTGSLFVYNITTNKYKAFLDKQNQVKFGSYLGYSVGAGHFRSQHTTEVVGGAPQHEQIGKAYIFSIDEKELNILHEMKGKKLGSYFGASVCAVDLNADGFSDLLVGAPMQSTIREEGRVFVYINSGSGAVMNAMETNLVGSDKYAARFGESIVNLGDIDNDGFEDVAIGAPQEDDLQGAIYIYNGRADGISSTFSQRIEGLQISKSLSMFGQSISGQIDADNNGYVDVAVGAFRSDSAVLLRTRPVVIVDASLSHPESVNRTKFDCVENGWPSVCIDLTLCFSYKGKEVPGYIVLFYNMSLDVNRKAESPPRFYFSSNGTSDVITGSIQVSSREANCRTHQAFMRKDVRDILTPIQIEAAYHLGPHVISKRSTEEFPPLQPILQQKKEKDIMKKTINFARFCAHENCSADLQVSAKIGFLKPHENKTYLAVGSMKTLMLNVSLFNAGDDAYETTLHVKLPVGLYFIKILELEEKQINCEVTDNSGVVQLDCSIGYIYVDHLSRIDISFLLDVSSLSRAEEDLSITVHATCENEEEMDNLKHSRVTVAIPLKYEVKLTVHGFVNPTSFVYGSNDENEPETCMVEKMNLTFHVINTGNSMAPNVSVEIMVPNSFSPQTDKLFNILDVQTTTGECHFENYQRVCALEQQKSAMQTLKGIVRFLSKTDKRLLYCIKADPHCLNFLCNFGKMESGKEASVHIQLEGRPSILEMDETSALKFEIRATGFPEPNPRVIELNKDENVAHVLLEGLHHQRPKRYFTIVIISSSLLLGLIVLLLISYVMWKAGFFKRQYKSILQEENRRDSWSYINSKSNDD
# Sequence (P05556 21-798): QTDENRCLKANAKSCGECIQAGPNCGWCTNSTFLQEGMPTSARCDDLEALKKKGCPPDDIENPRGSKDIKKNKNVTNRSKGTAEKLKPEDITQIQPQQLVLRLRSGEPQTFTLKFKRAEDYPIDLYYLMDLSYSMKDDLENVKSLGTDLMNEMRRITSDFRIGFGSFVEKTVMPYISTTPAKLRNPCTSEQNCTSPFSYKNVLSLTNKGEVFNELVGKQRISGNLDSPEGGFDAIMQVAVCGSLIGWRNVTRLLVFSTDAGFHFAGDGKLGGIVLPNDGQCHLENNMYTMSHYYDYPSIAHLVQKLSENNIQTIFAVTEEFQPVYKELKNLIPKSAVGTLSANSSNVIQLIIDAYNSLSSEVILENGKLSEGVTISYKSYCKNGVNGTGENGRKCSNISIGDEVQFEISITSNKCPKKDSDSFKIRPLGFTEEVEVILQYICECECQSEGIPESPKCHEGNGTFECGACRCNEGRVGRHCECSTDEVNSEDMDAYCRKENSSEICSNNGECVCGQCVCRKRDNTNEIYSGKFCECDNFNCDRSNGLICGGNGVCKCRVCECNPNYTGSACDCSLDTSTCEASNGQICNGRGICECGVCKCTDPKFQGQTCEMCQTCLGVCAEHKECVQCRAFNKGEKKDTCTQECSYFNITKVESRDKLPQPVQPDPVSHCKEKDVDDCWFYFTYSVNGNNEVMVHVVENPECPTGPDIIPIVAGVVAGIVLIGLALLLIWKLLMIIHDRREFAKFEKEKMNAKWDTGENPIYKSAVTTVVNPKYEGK
# Assay name: Jurkat-endothelial cell adhesion assay (Jurkat EC)
# Condition notes: Jurkat cells on IL-1 stimulated human umbilical vein endothelial cells; read-out: JK/EC (Jurkat EC Assay IC50 value range)
pIC50: −log10 of the molar value.
Measure: pIC50

Recorded results for 3 compounds are shown here.
* O=C(O)CCCC(=O)N1CSC[C@H]1C(=O)N[C@@H](Cc1ccc(NC(=O)c2c(Cl)cccc2Cl)cc1)C(=O)O (relative stereo) | ≤ 6.00
* O=C(C[C@H]1CC[C@@H](C(=O)O)N1Cc1ccccc1)N[C@@H](Cc1ccc(OCc2c(Cl)cccc2Cl)cc1)C(=O)O | ≤ 6.00
* O=C(O)c1ccc(C(=O)N2CSC[C@H]2C(=O)N[C@@H](Cc2ccc(NC(=O)c3c(Cl)cccc3Cl)cc2)C(=O)O)nc1 | ≤ 6.00

// recorded pIC50 for COC(=O)CCCC(=O)N1CSC[C@@H]1C(=O)N[C@@H](Cc1ccc(NC(=O)c2c(Cl)cccc2Cl)cc1)C(=O)OC (relative stereo) : ≤ 6.00

// recorded pIC50 for COC(=O)[C@H](Cc1ccc(NC(=O)c2c(Cl)cccc2Cl)cc1)NC(=O)[C@@H]1CSCCN1C(=O)OC(C)(C)C : ≤ 6.00
